Can you tell me log10 of TGI for the items I'm about to list?
test system: HL-60(TB) leukemia; assay: NCI tumour cell line growth inhibition, 48 h
Response schema: value (number) is log10 of TGI in units of µM.

Determine its reported log10 of TGI: `CN(c1ccc(Cl)c(Cl)c1)c1cnc2cc(N)cc(N)c2n1` 0.88

Indicate the recorded log10 of TGI value for this molecule: `CCN(Cc1cc(F)cc(F)c1)c1ccc(CO)c(Cl)c1` 1.51

Answer with reported log10 of TGI of `CCCCN1C=CCN(CCCC)C1` 1.88

Please report log10 of TGI for the following molecule: CC(c1ccccc1)N1C(=O)CSC1=S (configuration not stated) 0.16

Kindly indicate its recorded log10 of TGI. Item: COc1cc(C=C2c3ccccc3C(=O)c3ccccc32)ccc1OCCCCOc1cc2c(cc1OC)C(=O)N1CCCC1C=N2 (configuration not stated) -0.41

Let me know recorded log10 of TGI for `CN(C)CCCNc1nc2ccccc2c2c(=O)c3cc(F)ccc3sc12` , thanks. 0.62

Answer with the recorded log10 of TGI of Clc1ccc(Cc2nc3cc(Cl)c(Cl)cc3n2CC2CCCN3CCCCC23)cc1Cl (configuration not stated) only. 0.77

Read off the recorded log10 of TGI for CC(=O)O[C@]1(C)CCC2C(C)C(=O)OC2C2C(C)[C@@H](O)CC21 (some centres not stated) 1.53

Item N#CNC1=NC(Cc2ccccc2)C(=O)N1CCc1c[nH]c2ccccc12 (configuration not stated) : provide log10 of TGI 1.78

Please report log10 of TGI for the following molecule: `CCCCc1ccc(NS(=O)(=O)c2cc3c4c(c2)CCN4C(=O)CC3)cc1` 1.77

State its log10 of TGI for this molecule: CN(C)c1ccc(C2C(Cl)C(=O)N2NC(=O)c2c(Cl)c(Cl)c(Cl)c(Cl)c2-c2nc3ccccc3[nH]2)cc1 (configuration not stated) 1.46

Provide only the value of recorded log10 of TGI for `CN(C)CCNc1c2c(c(NCCN(C)C)c3c(CN(C)C)c[nH]c13)C(=O)c1ccccc1C2=O` 0.87

Report log10 of TGI, nothing else, for this molecule: `CCCCCCCCCCCCC(=O)CCCCC(=O)O` 1.52

Provide log10 of TGI value for the following molecule: `CN(c1ccc(C(=O)O)cc1)c1cc(O/N=[N+](\[O-])N(C)C)c([N+](=O)[O-])cc1[N+](=O)[O-]` 1.44

Give the value of log10 of TGI reported for the following: `C=CCN1C(=O)CNC1=S` 1.90

Let me know recorded log10 of TGI for `O=C(CCCBr)Nc1ccccc1C#C/C=C\C#Cc1ccccc1C(F)(F)F` , thanks. 1.65

Respond only with log10 of TGI recorded for `CCOC(=O)c1c(NNc2ccccc2)nc2ccccc2c1-c1ccccc1` 1.65

Return reported log10 of TGI. Input molecule: `Cc1ccc(N(CC(=O)Nc2ccc(S(=O)(=O)NC3CCN(C)CC3)cc2)S(=O)(=O)c2ccc(Cl)cc2)cc1` 0.69

Item `COc1cc(Nc2ncc3c(C)nc(-c4cccc(C(F)(F)F)c4)n3n2)cc(OC)c1OC` : provide log10 of TGI 1.20
